- Read-out: cysteine-aspartic acid protease (CASP8), CASP8 (gene 841)
- EXPERIMENTAL PROTOCOL: LTEA_HepaRG_CASP8: Life Technologies and Expression Analysis (LTEA) Assay for cysteine-aspartic acid protease (CASP8) using HepaRG (AID 2283480)
- ASSAY SETUP: mRNA level, 48 h; actives raise or lower the signal
- Method: LTEA_HepaRG is a cell based, multiplexed-readout assay that uses HepaRG, a human liver cell line, with measurements taken at 48 hours after chemical dosing on a 96-well plate.LTEA_HepaRG_CASP8 is one of 102 assay component(s) measured in the LTEA HepaRG cell culture assay. It is a marker of Cell proliferation, survival, death.Data from the assay component LTEA_HepaRG_CASP8 was analyzed into 1 endpoint. […]
The source made the active and inactive calls. The calls were made as follows: active = hit-call score of the fitted dose curve at least 0.9, where 1 is the maximum; inactive = score below 0.9.
Outcomes: yes (1) for active, no (0) for inactive

MOLECULE	LABEL CLASS
Cc1ccc2oc(CN(Cc3ccccc3)C(=O)Nc3c(F)cc(F)cc3F)c(-c3ccc(Cl)cc3)c2c1	no (0)
CO[C@H]1/C=C/O[C@@]2(C)Oc3c(C)c(O)c4c(O)c(c(/C=N/N5CCN(C)CC5)c(O)c4c3C2=O)NC(=O)/C(C)=C\C=C\[C@H](C)[C@H](O)[C@@H](C)[C@@H](O)[C@@H](C)[C@H](OC(C)=O)[C@@H]1C	no (0)
C[C@]12CC[C@@H]3c4ccc(O)cc4CC[C@H]3[C@@H]1CC[C@H]2O	no (0)
O=C(O)c1ccccc1-n1cc(C(=O)O)c(=O)c2cc(Nc3c(F)cc(F)cc3Cl)c(Cl)cc21	no (0)
O=C(Nc1ccc(Cl)cc1)Nc1ccc(Cl)c(Cl)c1	no (0)
Cc1occc1C(=O)Nc1ccc(C(=O)N2CCC(F)(F)/C(=C\C(=O)N3CCC(N4CCCCC4)CC3)c3ccccc32)cc1	no (0)
CCN(CC)C(=O)c1cc(S(=O)(=O)Cc2ccccc2)c(N2CCC(c3ccccc3)CC2)cc1N(CC)CCN(C)C	yes (1)
CN1C(=O)N(c2ccccc2Br)Cc2cnc(Nc3ccc4c(c3)OCC(CO)O4)nc21 (stereo unspecified)	yes (1)
CC(C)(C)c1cc(/C=C2\SC(N)=NC2=O)cc(C(C)(C)C)c1O	yes (1)
OC12N=C(c3ccccc3)SC1Cc1cc(Cl)ccc12 (stereo unspecified)	no (0)
CC(O)CC(C)(C)O (stereo unspecified)	no (0)
Cc1cn([C@H]2C[C@H](N=[N+]=[N-])[C@@H](CO)O2)c(=O)[nH]c1=O	no (0)
Cc1c2ccccc2c(C)c2c1ccc1ccccc12	no (0)
CN1C(=O)CC[C@H]1c1cccnc1	no (0)
c1ccc2ccccc2c1	no (0)
CC1=CC(=O)/C(=C(/C)O)C(=O)O1	no (0)
CCCCOC(=O)c1ccc(O)cc1	no (0)
O=C(O)c1ccccc1C(=O)OCc1ccccc1	no (0)
COc1cc(C(=O)NC2CCN(C)CC2)ccc1Nc1ncc2c(n1)N(C1CCCC1)CC(F)(F)C(=O)N2C	yes (1)
CCO[Si](CCCNC(N)=O)(OCC)OCC	no (0)
O=C(O)Cn1c(=O)n(Cc2ccc(Br)cc2F)c(=O)c2ccc(Cl)cc21	no (0)
NC(=O)c1nc(-c2cccc(-c3cc(F)ccc3OCC(F)(F)C(F)(F)F)c2)n[nH]1	no (0)
CCCCCCCCCCCO	no (0)
Cc1cc(F)ccc1-c1cc(N2CC[C@@H](O)[C@H]2CO)ncc1N(C)C(=O)C(C)(C)c1cc(C(F)(F)F)cc(C(F)(F)F)c1	no (0)
c1ccc2n[nH]nc2c1	no (0)
O=C1O[C@H]([C@@H](O)CO)C(O)=C1O	no (0)
CC[C@H](NC(=O)c1cc(F)ccc1NS(=O)(=O)c1cccc2cccnc12)c1ccccc1	no (0)
CC(C)(C)c1csc(-c2cc3cc(OCc4ccccc4CC(=O)O)ccc3o2)n1	no (0)
O=C(OCCCCCCOC(=O)c1ccccc1)c1ccccc1	no (0)
CN(C)C(=O)C1(N2CCCCC2)CCN(CC[C@@]2(c3ccc(Cl)c(Cl)c3)CN(C(=O)c3ccccc3)CCO2)CC1	no (0)
CN(C)c1ccc(C(=C2C=CC(=[N+](C)C)C=C2)c2ccc(N(C)C)cc2)cc1	no (0)
Clc1cc(Cl)c2c(c1)N=C1CCCCCN1C2	no (0)
CCCCCCCCN(C)CCCCCCCC	no (0)
CCCC(=O)OCCC(C)C	no (0)
CC1(C)NC(=O)N(c2ccc([N+](=O)[O-])c(C(F)(F)F)c2)C1=O	no (0)
C[C@]12CC[C@@H]3c4ccc(O)cc4CC[C@H]3[C@@H]1CCC2=O	no (0)
